Form field: SOUTHERN CORN ROOTWORM (one value per entry).
- Test system: Diabrotic undecimpunctata howardi, 3rd instar southern corn rootworm
- PROTOCOL_SUMMARY: Southern corn rootworm soil test
- Format: in vivo
- Parameters: key: 0: no effect; 10-25% kill; 26-35% kill; 36-45% kill; 46-55% kill; 56-65% kill; 66-75% kill; 76-85% kill; 86-99% kill; 9: 100% kill
- REPORTED_CONDITIONS: 10 (ppm as headed), mortality rating after 6 days
Give the value as a plain number.

Example results:
N#Cc1c(Br)c(C(F)(F)F)n(CSC2=NCCN2)c1-c1ccc(Cl)cc1 = 0
N#Cc1c(Br)c(C(F)(F)F)n(CS(=O)(=O)c2ccccc2)c1-c1ccc(Cl)cc1 = 0

Now for the molecule whose SOUTHERN CORN ROOTWORM we want.
Req: SOUTHERN CORN ROOTWORM lookup needed for `N#Cc1c(Cl)c(C(F)(F)F)n(CSC(=N)N)c1-c1ccc(Cl)cc1` , thanks.
Resp: 0

* * *

- Test system: Tetranychus urticae (OP-resistant strain), 2-spotted spider mite
- PROTOCOL_SUMMARY: 2-spotted spider mite test, dipped infested limabean plants
- Format: in vivo
- REPORTED_CONDITIONS: 300 ppm; mortality rating after 2 days
EXPERIMENTAL_ENDPOINT: OP-RESISTANT MITES Adult

Use the examples below as a reference point.
CC(C)OC(=S)SCn1c(-c2ccc(Cl)cc2)c(C#N)c(Cl)c1C(F)(F)F [Example 22] = 9 (100% kill)
CN(C)C(=S)SCn1c(-c2ccc(Cl)cc2)c(C#N)c(Cl)c1C(F)(F)F [Example 21] = 9 (100% kill)
CCOC(=S)SCn1c(-c2ccc(Cl)cc2)c(C#N)c(Cl)c1C(F)(F)F [Example 23] = 9 (100% kill)

Req: What value of measured OP-RESISTANT MITES Adult is listed for CN(C)C(=S)SCn1c(-c2ccc(Cl)cc2)c(C#N)c(Br)c1C(F)(F)F [Example 24] ?
Resp: 0

* * *

- Test system: Spodoptera eridania, 3rd instar larvae, southern armyworm
- PROTOCOL_SUMMARY: Southern armyworm 3rd instar test, dipped limabean leaf
- Format: in vivo
- REPORTED_CONDITIONS: 100 ppm; rating at 5 days
EXPERIMENTAL_ENDPOINT: ARMYWORM Day 5

CCN(CC)C(=S)SCn1c(-c2ccc(Cl)cc2)c(C#N)c(Br)c1C(F)(F)F = 9 (100% kill)
CSCn1c(Br)c(Br)c(C#N)c1-c1ccc(C(F)(F)F)cc1 = 9 (100% kill)
N#Cc1c(Br)c(Br)n(CSCc2ccccc2)c1Br = 0
CN=C(NC)SCn1c(-c2ccc(Cl)cc2)c(C#N)c(Cl)c1C(F)(F)F = 9 (100% kill)
CN=C(NC)SCn1c(Br)c(Br)c(C#N)c1Br = 9 (100% kill)

Req: Which measured ARMYWORM Day 5 value corresponds to `CSCn1c(Br)c(Br)c(C#N)c1SC` ?
Resp: 0

Req: Would you kindly share the measured ARMYWORM Day 5 for `CCN=C(NCC)SCn1c(-c2ccc(Cl)cc2)c(C#N)c(Br)c1C(F)(F)F` ?
Resp: 9 (100% kill)

Req: If you can, please state the reported ARMYWORM Day 5 value of `CN=C(NC)SCn1c(Cl)c(Cl)c(C#N)c1-c1ccc(Cl)c(Cl)c1` .
Resp: 9 (100% kill)

Req: ARMYWORM Day 5 lookup needed for `CC(C)OC(=S)SCn1c(-c2ccc(Cl)cc2)c(C#N)c(Cl)c1C(F)(F)F` , thanks.
Resp: 9 (100% kill)

* * *

- Tested on: Spodoptera eridania, 3rd instar larvae, southern armyworm
- PROTOCOL_SUMMARY: Southern armyworm 3rd instar test, dipped limabean leaf
- Type: in vivo
- REPORTED_CONDITIONS: 100 ppm; rating at 5 days
Here, each record is paired with measured ARMYWORM Day 5 data.

CN(C)C(=S)SCn1c(-c2ccc(Cl)cc2)c(C#N)c(Br)c1C(F)(F)F = 9 (100% kill)
N=C(N)SCn1c(-c2ccc(Cl)c(Cl)c2)c(Br)c(C(F)(F)F)c1C(F)(F)F = 9 (100% kill)
CCOC(=S)SCn1c(-c2ccc(Cl)c(Cl)c2)c(Br)c(C(F)(F)F)c1C(F)(F)F = 9 (100% kill)
N#Cc1c(Br)c(C(F)(F)F)n(CSC2=NCCN2)c1-c1ccc(Cl)cc1 = 9 (100% kill)
N#Cc1c(Br)c(C(F)(F)F)n(CS(=O)(=O)c2ccccc2)c1-c1ccc(Cl)cc1 = 0

Req: I would be grateful if you could share the reported ARMYWORM Day 5 for `CC1(C)CN=C(SCn2c(-c3ccc(Cl)cc3)c(C#N)c(Br)c2C(F)(F)F)NC1` .
Resp: 9 (100% kill)

Req: Look at this compound and give its reported ARMYWORM Day 5. `N#Cc1c(Br)c(C(F)(F)F)n(CSc2nc3ccccc3[nH]2)c1-c1ccc(Cl)cc1`
Resp: 0

* * *

- Tested on: Spodoptera eridania, 3rd instar larvae, southern armyworm
- PROTOCOL_SUMMARY: Southern armyworm 7-day residual test
- Format: in vivo
- REPORTED_CONDITIONS: R designates Residual: 7-day residual foliage; rating at 5 days; concentration not given
EXPERIMENTAL_ENDPOINT: ARMYWORM Day 5 R

N#Cc1c(Cl)c(C(F)(F)F)n(CSC2=NCCCN2)c1-c1ccc(Cl)cc1 [Example 5] = 9 (100% kill)
CCOC(=S)SCn1c(Cl)c(Cl)c(C#N)c1-c1ccc(Cl)c(Cl)c1 [Example 28] = 9 (100% kill)
N#Cc1c(Cl)c(C(F)(F)F)n(CSC2=NCCN2)c1-c1ccc(Cl)cc1 [Example 4] = 9 (100% kill)
N=C(N)SCn1c(-c2ccc(Cl)c(Cl)c2)c(Br)c(C(F)(F)F)c1C(F)(F)F [Example 18] = 9 (100% kill)
N#Cc1c(Br)c(C(F)(F)F)n(CSC2=NCCCCN2)c1-c1ccc(Cl)cc1 [Example 11] = 9 (100% kill)
CN=C(NC)SCn1c(Cl)c(Cl)c(C#N)c1-c1ccc(Cl)c(Cl)c1 [Example 15] = 9 (100% kill)

Now, please, on to the next compound.
Req: // fetch Spodoptera eridania, 3rd instar larvae, southern armyworm ARMYWORM Day 5 R for CCN(CC)C(=S)SCn1c(-c2ccc(Cl)cc2)c(C#N)c(Br)c1C(F)(F)F [Example 26]
Resp: 9 (100% kill)

* * *

- Tested on: Heliothis virescens, 3rd instar tobacco budworm
- PROTOCOL_SUMMARY: Tobacco budworm 3rd instar test, dipped cotton cotyledons
- Assay type: in vivo
- Set-up: key: 0: no effect; 10-25% kill; 26-35% kill; 36-45% kill; 46-55% kill; 56-65% kill; 66-75% kill; 76-85% kill; 86-99% kill; 9: 100% kill
- REPORTED_CONDITIONS: 1000 ppm; mortality rating after 3 days
# Lookup of reported TOBACCO BUDWORM 3rd Instar keyed by entry

Check out these entries, answers already filled in.
CN(C)C(=S)SCn1c(Cl)c(Cl)c(C#N)c1-c1ccc(Cl)c(Cl)c1 = 0
CN=C(NC)SCn1c(-c2ccc(Cl)cc2)c(C#N)c(Cl)c1C(F)(F)F = 9 (100% kill)
N=C(N)SCn1c(-c2ccc(Cl)c(Cl)c2)c(Br)c(C(F)(F)F)c1C(F)(F)F = 9 (100% kill)
CC(C)OP(=S)(OC(C)C)SCn1c(-c2ccc(Cl)cc2)c(C#N)c(Br)c1C(F)(F)F = 9 (100% kill)
CN(C)C(=S)SCn1c(Cl)c(C#N)c(Cl)c1-c1ccc(Cl)c(Cl)c1 = 9 (100% kill)

Req: What TOBACCO BUDWORM 3rd Instar value was documented for this compound, `CN=C(NC)SCn1c(Br)c(Br)c(C#N)c1Br` ?
Resp: 8 (86-99% kill)

Req: What does the record list as TOBACCO BUDWORM 3rd Instar for `CSCn1c(Br)c(Br)c(C#N)c1-c1ccc(C(F)(F)F)cc1` ?
Resp: 9 (100% kill)

Req: Would you kindly share the measured TOBACCO BUDWORM 3rd Instar for `CCN(CC)C(=S)SCn1c(-c2ccc(Cl)cc2)c(C#N)c(Br)c1C(F)(F)F` ?
Resp: 9 (100% kill)

Req: # query: TOBACCO BUDWORM 3rd Instar of entry `N#Cc1c(Br)c(Br)n(CSCc2ccccc2)c1Br`
Resp: 0

* * *

- Tested on: Spodoptera eridania, 3rd instar larvae, southern armyworm
- PROTOCOL_SUMMARY: Southern armyworm 3rd instar test, dipped limabean leaf
- Assay type: in vivo
- REPORTED_CONDITIONS: 1000 ppm; rating at 3 days
EXPERIMENTAL_ENDPOINT: ARMYWORM Day 3

Recorded results for 6 molecules are shown here.
CSCn1c(Br)c(Br)c(C#N)c1SC = 9 (100% kill)
N#Cc1c(Br)c(C(F)(F)F)n(CSC2=NCCCCN2)c1-c1ccc(Cl)cc1 = 9 (100% kill)
CC1(C)CN=C(SCn2c(-c3ccc(Cl)cc3)c(C#N)c(Br)c2C(F)(F)F)NC1 = 9 (100% kill)
CN=C(NC)SCn1c(Br)c(Br)c(C#N)c1Br = 9 (100% kill)
CC(C)OC(=S)SCn1c(-c2ccc(Cl)cc2)c(C#N)c(Cl)c1C(F)(F)F = 9 (100% kill)
CN(C)C(=S)SCn1c(-c2ccc(Cl)cc2)c(C#N)c(Br)c1C(F)(F)F = 9 (100% kill)

Req: Could you share which ARMYWORM Day 3 value was measured for `CCOC(=S)SCn1c(-c2ccc(Cl)cc2)c(C#N)c(Br)c1C(F)(F)F` ?
Resp: 9 (100% kill)

Req: I'd like to know its ARMYWORM Day 3. The molecule in question is `CSCn1c(-c2ccc(Cl)cc2)c(C#N)c(Br)c1C(F)(F)F`
Resp: 9 (100% kill)

Req: Which ARMYWORM Day 3 is reported for this molecule? `N#Cc1c(Br)c(C(F)(F)F)n(CSC2=NCCS2)c1-c1ccc(Cl)cc1`
Resp: 9 (100% kill)

Origin of measurements: patent EP0545103A1
